# studySystem: T1, recombinant human domain 1-3His6 of the cation-independent mannose-6-phosphate receptor (human, UniProt P11717 41-467)
# T1 construct: Biotinylated (NHS-PEG4-biotin) for BLI; Glycosylated; also called hDom1-3His6; hCI-M6PRD1-D3
# assay: BLI exp 1, dissoc pH 7.4
Parameter: kon. Scope: all listed entries.
Number in M⁻¹ s⁻¹, nothing else.

• anti-CI-M6PR VHH8 (VHH, His6-tagged (Pichia pastoris)) VHH: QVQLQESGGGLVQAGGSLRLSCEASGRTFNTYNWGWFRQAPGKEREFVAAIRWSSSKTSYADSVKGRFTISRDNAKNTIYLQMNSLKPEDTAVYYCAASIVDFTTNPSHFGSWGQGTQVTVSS = 465000

Next binder, kon to be filled in.
Would you mind telling me what kon value was observed for anti-CI-M6PR VHH6 (VHH, His6-tagged; made in E. coli) VHH: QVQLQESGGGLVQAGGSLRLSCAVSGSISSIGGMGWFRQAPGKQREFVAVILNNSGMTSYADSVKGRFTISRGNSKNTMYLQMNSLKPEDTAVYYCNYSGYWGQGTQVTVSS ?
1.05e+06
